# Test system: Escherichia coli
# protocolNotes: Bactericidal activity against Escherichia coli INCQS 00033 ATCC 25922 at 256 ug/ml incubated for 24 hrs followed by transfer of microbial suspension to agar plates and measured after 24 hrs post transfer by resazurin dye-based colorimetric analysis
# Format: functional, organism-based
# conditionInfo: ATCC 25922 INCQS 00033
Activity calls are given as the source filed them. The calls are words filed in the database; no cut-off is given here.
endpointName: Activity

COC(=O)c1c(C)nc(C)c2c1C(=O)C(Cl)=C(NC[C@H]1O[C@@H]3OC(C)(C)O[C@@H]3[C@H]1O)C2=O :: inactive
COC(=O)c1c(C)nc(C)c2c1C(=O)C=C(NC[C@H]1O[C@@H]3OC(C)(C)O[C@@H]3[C@H]3OC(C)(C)O[C@H]31)C2=O :: inactive
COC(=O)c1c(C)nc(C)c2c1C(=O)C(Br)=C(NC[C@H]1O[C@@H]3OC(C)(C)O[C@@H]3[C@H]1O)C2=O :: inactive
COC(=O)c1c(C)nc(C)c2c1C(=O)C=C(NC[C@H]1O[C@@H]3OC(C)(C)O[C@@H]3[C@H]1O)C2=O :: inactive

We next turn to a different compound, shown below.
Return reported Activity; argument: COC(=O)c1c(C)nc(C)c2c1C(=O)C(Cl)=C(N)C2=O
inactive
